Biological target: BRM (Homo sapiens)
Construct: In-Cell Western Screen of BRM Degradation in SW1573 Cells; endogenous in cells; host or cells: SW1573
Sequence (P51531 whole entry): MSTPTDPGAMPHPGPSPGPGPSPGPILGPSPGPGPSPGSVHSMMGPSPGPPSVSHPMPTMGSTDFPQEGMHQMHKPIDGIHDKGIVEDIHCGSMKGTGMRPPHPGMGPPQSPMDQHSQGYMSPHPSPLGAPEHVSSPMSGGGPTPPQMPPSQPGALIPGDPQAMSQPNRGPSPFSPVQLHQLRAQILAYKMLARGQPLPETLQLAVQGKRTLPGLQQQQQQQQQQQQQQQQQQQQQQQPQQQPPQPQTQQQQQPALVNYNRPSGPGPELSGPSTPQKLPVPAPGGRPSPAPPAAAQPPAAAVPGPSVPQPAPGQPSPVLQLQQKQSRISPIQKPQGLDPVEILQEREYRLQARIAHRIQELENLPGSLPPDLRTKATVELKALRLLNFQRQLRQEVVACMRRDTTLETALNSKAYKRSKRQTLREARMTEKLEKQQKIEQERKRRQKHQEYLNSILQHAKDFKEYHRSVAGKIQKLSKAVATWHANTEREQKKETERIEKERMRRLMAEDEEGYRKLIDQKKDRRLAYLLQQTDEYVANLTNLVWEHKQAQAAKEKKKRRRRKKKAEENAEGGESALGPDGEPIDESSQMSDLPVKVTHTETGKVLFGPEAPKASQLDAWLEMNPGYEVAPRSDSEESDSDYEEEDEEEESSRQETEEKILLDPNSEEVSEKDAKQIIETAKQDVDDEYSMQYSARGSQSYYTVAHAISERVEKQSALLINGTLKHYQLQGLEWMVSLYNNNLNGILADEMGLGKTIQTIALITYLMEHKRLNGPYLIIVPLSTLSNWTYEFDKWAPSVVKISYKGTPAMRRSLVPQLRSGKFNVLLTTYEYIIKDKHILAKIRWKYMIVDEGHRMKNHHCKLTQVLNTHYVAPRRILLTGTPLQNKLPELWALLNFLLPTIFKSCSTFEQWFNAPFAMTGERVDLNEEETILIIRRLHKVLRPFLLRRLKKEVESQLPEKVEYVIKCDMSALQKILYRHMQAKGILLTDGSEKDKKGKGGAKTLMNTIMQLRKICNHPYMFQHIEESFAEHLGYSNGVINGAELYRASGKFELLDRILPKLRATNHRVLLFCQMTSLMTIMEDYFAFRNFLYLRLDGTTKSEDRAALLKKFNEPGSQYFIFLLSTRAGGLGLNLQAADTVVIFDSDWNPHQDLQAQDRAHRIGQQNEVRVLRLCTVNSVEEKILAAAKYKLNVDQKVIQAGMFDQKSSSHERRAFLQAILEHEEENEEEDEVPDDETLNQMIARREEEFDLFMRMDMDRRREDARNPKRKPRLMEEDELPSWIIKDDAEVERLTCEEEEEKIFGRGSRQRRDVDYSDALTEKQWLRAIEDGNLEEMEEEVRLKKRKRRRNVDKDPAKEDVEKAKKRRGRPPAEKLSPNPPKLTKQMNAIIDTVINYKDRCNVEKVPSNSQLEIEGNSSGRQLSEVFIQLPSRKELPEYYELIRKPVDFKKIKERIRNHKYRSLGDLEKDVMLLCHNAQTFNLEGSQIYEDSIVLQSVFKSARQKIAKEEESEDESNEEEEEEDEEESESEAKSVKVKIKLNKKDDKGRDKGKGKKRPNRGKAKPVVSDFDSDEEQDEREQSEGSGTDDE
Test: In-cell Western screen of BRM degradation in SW1573 cells (Dmax and DC50)
Assay type: cell-based
Details: BRM degradation, SW1573 cells; read-out: DC50
measurementKind: DC50

Worked examples, 3 compounds total:
[[record]]
compound = "Cc1ncsc1-c1ccc([C@H](C)NC(=O)[C@@H]2C[C@@H](O)CN2C(=O)[C@@H](c2cc(N3CCC(CN4CCC(O[C@H]5C[C@H](Oc6cc(N7C8CCC7CN(c7cc(-c9ccccc9O)nnc7N)C8)ccn6)C5)CC4)CC3)no2)C(C)C)cc1F [compound 652]"
targetsystem = "BRM (Homo sapiens)"
measurementkind = "DC50"
valueobserved = "< 0.0025 µM"

[[record]]
compound = "Cc1ncsc1-c1ccc([C@H](C)NC(=O)[C@@H]2C[C@@H](O)CN2C(=O)[C@H](c2onc(OCCN3CCN(CCOc4cc(N5C6CCC5CN(c5cc(-c7ccccc7O)nnc5N)C6)ccn4)CC3)c2Cl)C(C)C)cc1 [compound 54]"
targetsystem = "BRM (Homo sapiens)"
measurementkind = "DC50"
valueobserved = "> 0.03 µM"

[[record]]
compound = "Cc1ncsc1-c1ccc(CNC(=O)[C@@H]2C[C@@H](O)CN2C(=O)[C@H](c2cc(OCC#Cc3ccc(O[C@H]4C[C@H](Oc5cc(N6C7CCC6CN(c6cc(-c8ccccc8O)nnc6N)C7)ccn5)C4)cn3)no2)C(C)C)cc1 [compound 220]"
targetsystem = "BRM (Homo sapiens)"
measurementkind = "DC50"
valueobserved = "0.01 to 0.03 µM"


Now for a further compound.
q: Quick check: DC50 on BRM (Homo sapiens), item Cc1ncsc1-c1ccc([C@H](C)NC(=O)[C@@H]2C[C@@H](O)CN2C(=O)[C@@H](c2cc(N3CCC(CN4CCC(O[C@H]5C[C@H](Oc6cc(N7C8CCC7CN(c7cc(-c9ccccc9O)nnc7N)C8)ccn6)C5)CC4)CC3)no2)C(C)C)c(O)c1 [compound 690] ?
a: < 0.0025 µM
